FYI, the data here is from PubChem BioAssay (NCI).

tested on: T-47D breast; experiment: NCI tumour cell line growth inhibition, 48 h
value_type: TGI

O=C1CN(c2cccc(C(F)(F)F)c2)C(=O)CN1NCNN1CC(=O)N(c2cccc(C(F)(F)F)c2)CC1=O ... > 100 µM

[Q] Please list TGI recorded for the compound [N-]=[N+]=NC1(N=[N+]=[N-])C(=O)NN=C(c2ccccc2)C1=O (centres undefined)
[A] 94.3 µM

[Q] Entry `Cc1cc(N(CCOS(C)(=O)=O)CCOS(C)(=O)=O)ccc1C=Nc1ccc(-c2csc(-c3ccccc3)n2)c(Cl)c1` needs its TGI filled in; supply it.
[A] > 85.2 µM

[Q] Return the recorded TGI value; entry: CCCCCCCCCCCCCCCCOP(=O)(O)OP(=O)(O)OCC1OC(n2ccc(N)nc2=O)CC1O (centres undefined)
[A] > 100 µM

[Q] Identify the reported TGI for the following entry. COC1Cc2c(C)c(OC(C)=O)c3cccnc3c2O1 (centres undefined)
[A] 62.3 µM

[Q] Annotate the compound Cc1c(O)c(OC2OC(CO)C(O)C(O)C2O)cc2c1CC[C@@H]1C2(C)C(=O)C[C@]2(C)[C@@H]([C@@](C)(O)C(O)/C=C/C(C)(C)O)[C@H](O)C[C@@]12C (some centres undefined) with its measured TGI.
[A] > 100 µM

[Q] Recall and state the measured TGI for `O=[N+]([O-])C(/C(Cl)=C(/Cl)N1CCCCC1)=C1\NCCO1` .
[A] > 100 µM

[Q] # return recorded TGI for entry `CCOC(=O)Cn1c(=O)c2nc(SC)sc2n(-c2ccc(C)cc2)c1=S`
[A] > 100 µM

[Q] Specify TGI for `NC(=S)SCCC(=O)O` and stop.
[A] > 100 µM
